So I've got a bunch of molecules here, and I need their k obs / 1 values.
Target: Caspase-1 (Homo sapiens) (UniProt P29466)
Sequence (whole entry): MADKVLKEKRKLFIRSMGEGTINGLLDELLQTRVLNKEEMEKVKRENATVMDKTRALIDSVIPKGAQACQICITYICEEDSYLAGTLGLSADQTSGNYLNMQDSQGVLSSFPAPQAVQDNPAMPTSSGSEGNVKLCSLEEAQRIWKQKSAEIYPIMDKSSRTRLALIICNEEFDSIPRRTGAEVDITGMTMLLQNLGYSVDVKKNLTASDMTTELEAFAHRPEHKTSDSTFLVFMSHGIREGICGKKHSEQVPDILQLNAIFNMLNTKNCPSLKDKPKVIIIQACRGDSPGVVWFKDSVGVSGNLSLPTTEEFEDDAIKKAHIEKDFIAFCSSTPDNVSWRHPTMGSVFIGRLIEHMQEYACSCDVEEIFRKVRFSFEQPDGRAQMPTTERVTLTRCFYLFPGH
Assay: Inhibition of IL-1 beta converting enzyme

C[C@@H](C(=O)O)[C@H](NC(=O)OCc1ccccc1)C(=O)COC(=O)c1c(Cl)cccc1Cl = < 1000 M⁻¹ s⁻¹

Consider the following items and state reported k obs / 1 for each.
1. O=C(O)C[C@H](NC(=O)OCc1ccccc1)C(O)COC(=O)c1c(Cl)cccc1Cl (stereo not given in full)
2. O=C(O)C[C@@H](C(=O)COC(=O)c1c(Cl)cccc1Cl)C(=O)NCCc1ccccc1
3. O=C(O)C[C@H](NC(=O)OCc1ccccc1)C(=O)COc1c(Cl)cccc1Cl
4. CC(C)[C@H](NC(=O)OCc1ccccc1)C(=O)N[C@@H](CC(=O)O)C(=O)COC(=O)c1c(Cl)cccc1Cl

Found:
< 1000 M⁻¹ s⁻¹
< 1000 M⁻¹ s⁻¹
< 1000 M⁻¹ s⁻¹
41000 M⁻¹ s⁻¹

---

Target: Caspase-1 (Homo sapiens)
Assay: Inhibition of IL-1 beta converting enzyme
So I've got a bunch of compounds here, and I need their log10 of k obs / 1 values.
Plainly stated, the numbers are log10 of k obs / 1 given in M⁻¹ s⁻¹.

Consider the following items and state reported log10 of k obs / 1 for each.
1. O=C(O)C[C@H](NC(=O)OCc1ccccc1)C(=O)COC(=O)c1c(Cl)cccc1Cl
2. COC(=O)N[C@@H](C)C(=O)N[C@@H](CC(=O)O)C(=O)COC(=O)c1c(Cl)cccc1Cl

Found:
1. 3.87
2. 3.85

---

Molecular target: Caspase-1 (Homo sapiens) (UniProt P29466)
Sequence (whole entry): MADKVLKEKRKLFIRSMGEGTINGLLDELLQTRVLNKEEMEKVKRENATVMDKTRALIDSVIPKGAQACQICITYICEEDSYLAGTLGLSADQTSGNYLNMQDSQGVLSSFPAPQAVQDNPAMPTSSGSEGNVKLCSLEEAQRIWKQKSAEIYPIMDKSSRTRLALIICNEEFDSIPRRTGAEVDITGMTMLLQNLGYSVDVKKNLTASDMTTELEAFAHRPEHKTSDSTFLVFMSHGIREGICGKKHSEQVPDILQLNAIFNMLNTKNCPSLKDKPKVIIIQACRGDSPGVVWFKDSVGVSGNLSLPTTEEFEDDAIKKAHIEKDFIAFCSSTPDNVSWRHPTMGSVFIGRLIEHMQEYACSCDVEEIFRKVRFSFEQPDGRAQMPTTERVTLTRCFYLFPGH
Assay: Inhibition of IL-1 beta converting enzyme
So I've got a bunch of compounds here, and I need their k obs / 1 values.

Worked examples, 10 compounds total:
C[C@@H](NC(=O)OCc1ccccc1)C(=O)N[C@@H](CC(=O)O)C(=O)COC(=O)c1c(Cl)cccc1Cl = < 1000 M⁻¹ s⁻¹
CN(C(=O)OCc1ccccc1)[C@@H](CC(=O)O)C(=O)COC(=O)c1c(Cl)cccc1Cl = < 1000 M⁻¹ s⁻¹
COC(=O)N[C@@H](Cc1c[nH]cn1)C(=O)N[C@@H](CC(=O)O)C(=O)COC(=O)c1c(Cl)cccc1Cl = 2200 M⁻¹ s⁻¹
COC(=O)N[C@@H](Cc1cccs1)C(=O)N[C@@H](CC(=O)O)C(=O)COC(=O)c1c(Cl)cccc1Cl = 2500 M⁻¹ s⁻¹
O=C(O)C[C@H](NC(=O)OCc1ccccc1)C(=O)CSc1c(Cl)cccc1Cl = < 1000 M⁻¹ s⁻¹
O=C(O)C[C@@H](CCOC(=O)c1c(Cl)cccc1Cl)NC(=O)OCc1ccccc1 = < 1000 M⁻¹ s⁻¹
O=C(O)C[C@@H](CC(=O)COC(=O)c1c(Cl)cccc1Cl)NC(=O)OCc1ccccc1 = < 1000 M⁻¹ s⁻¹
C[C@H](NC(=O)[C@H](Cc1ccccc1)NC(=O)OCc1ccccc1)C(=O)N[C@@H](CC(=O)O)C(=O)COC(=O)c1c(Cl)cccc1Cl = 233000 M⁻¹ s⁻¹
COC(=O)NCC(=O)N[C@@H](CC(=O)O)C(=O)COC(=O)c1c(Cl)cccc1Cl = < 1000 M⁻¹ s⁻¹
O=C(O)CCC[C@H](NC(=O)OCc1ccccc1)C(=O)COC(=O)c1c(Cl)cccc1Cl = < 1000 M⁻¹ s⁻¹

Consider the following items and state reported k obs / 1 for each.
1. C[C@H](NC(=O)[C@@H](C)NC(=O)OCc1ccccc1)C(=O)N[C@@H](CC(=O)O)C(=O)COC(=O)c1c(Cl)cccc1Cl
2. O=C(O)C[C@H](OC(=O)OCc1ccccc1)C(=O)COC(=O)c1c(Cl)cccc1Cl

Found:
1. 10000 M⁻¹ s⁻¹
2. < 1000 M⁻¹ s⁻¹

The origin of these recorded values is ChEMBL document CHEMBL1149962.
